Source of measurements: paper PMC4336329

Target: human ether-à-go-go-related gene (hERG) potassium channel (human)
Assay: primary screen, population patch clamp on CHO cells stably expressing hERG; higher = less effect of the substance
Among all 310,000 compounds or so, about 14,000 (4.5%) showed an effect of 50% or more. The effect is printed as a negative number. This is one part of a sample in which strong results are shown more often than they occur.
Provide the reported hERG current change (%, negative = inhibition) at 10uM of each item.
Numbers only, in %.

Sample answers from the record:
compound=COC(=O)c1cc(S(=O)(=O)N(C)c2ccc(C)c(C)c2)c[nH]1 observed=-20.2
compound=COc1cccc(-c2nnc(NC(=O)c3ccc4ncsc4c3)o2)c1 observed=-8.13
compound="CCn1c(O)c(/C(C)=N/N2CCCCC2c2cccnc2)c(=O)[nH]c1=S (centres unmarked)" observed=-55.2
compound=CN1c2ccccc2Oc2nnc(Cl)cc21 observed=-5.87
compound=CCN1CCN(c2cc3c(nn2)Oc2ccccc2N3C)CC1 observed=-41.1
compound=COc1ccc(Nc2nnc(-c3ccc(C(=O)NCCO)cc3)c3ccccc23)cc1 observed=-4.6
compound=CCOC(=O)N1CCC(N2Cc3cccc(C(=O)Nc4cccc(F)c4)c3C2=O)CC1 observed=-72.1
compound=Cc1cccc(C)c1NC(=O)c1cccc2c1C(=O)N(C1CCCCC1)C2 observed=-7.01

Working through the 3 compounds below one at a time, give hERG current change (%, negative = inhibition) at 10uM for each.
1. Cc1cccc2cc(CN(CCCO)C(=O)Nc3ccccc3Cl)c(=O)[nH]c12
2. CCCCn1c(O)c(/C(CC)=N/N2CCCCC2c2cccnc2)c(=O)[nH]c1=S (centres unmarked)
3. CN(C1CCCCC1)S(=O)(=O)c1ccc(S(=O)(=O)N2CCN(C(=O)c3ccccc3F)CC2)cc1

[out]
5.32
-27
-12.2

====

Biological target: human ether-à-go-go-related gene (hERG) potassium channel (human, UniProt Q12809)
Sequence (Q12809 whole entry, looked up): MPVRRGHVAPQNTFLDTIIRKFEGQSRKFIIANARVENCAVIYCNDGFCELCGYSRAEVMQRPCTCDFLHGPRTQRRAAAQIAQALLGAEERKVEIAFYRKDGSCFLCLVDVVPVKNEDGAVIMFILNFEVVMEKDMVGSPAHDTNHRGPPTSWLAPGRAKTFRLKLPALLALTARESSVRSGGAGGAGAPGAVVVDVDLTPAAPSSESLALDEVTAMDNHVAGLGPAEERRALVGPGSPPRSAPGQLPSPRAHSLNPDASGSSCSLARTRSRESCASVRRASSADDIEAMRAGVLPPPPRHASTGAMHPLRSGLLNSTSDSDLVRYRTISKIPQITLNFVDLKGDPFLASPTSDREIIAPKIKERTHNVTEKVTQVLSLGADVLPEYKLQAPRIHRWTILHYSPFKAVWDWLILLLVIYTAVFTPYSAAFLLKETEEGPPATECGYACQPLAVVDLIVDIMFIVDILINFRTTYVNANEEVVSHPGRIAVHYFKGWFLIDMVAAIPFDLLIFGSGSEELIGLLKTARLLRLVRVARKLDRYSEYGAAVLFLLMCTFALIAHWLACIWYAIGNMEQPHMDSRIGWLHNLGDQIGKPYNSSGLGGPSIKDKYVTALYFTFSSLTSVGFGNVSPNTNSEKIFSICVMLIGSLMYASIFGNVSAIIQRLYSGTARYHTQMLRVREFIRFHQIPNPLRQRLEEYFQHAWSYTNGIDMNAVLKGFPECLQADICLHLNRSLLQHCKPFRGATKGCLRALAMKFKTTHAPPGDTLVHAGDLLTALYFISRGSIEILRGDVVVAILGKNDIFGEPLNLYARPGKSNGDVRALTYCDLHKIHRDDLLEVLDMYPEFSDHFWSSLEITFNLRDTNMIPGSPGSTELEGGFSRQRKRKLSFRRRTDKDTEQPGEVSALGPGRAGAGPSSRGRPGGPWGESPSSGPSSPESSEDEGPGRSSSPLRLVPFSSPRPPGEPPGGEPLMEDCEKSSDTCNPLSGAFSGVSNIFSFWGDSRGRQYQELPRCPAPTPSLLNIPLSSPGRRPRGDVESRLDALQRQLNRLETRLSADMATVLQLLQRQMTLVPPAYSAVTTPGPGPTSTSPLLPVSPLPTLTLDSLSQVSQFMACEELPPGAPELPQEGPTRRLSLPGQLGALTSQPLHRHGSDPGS
Experiment: primary screen, population patch clamp on CHO cells stably expressing hERG; higher = less effect of the substance
About 14,000 (4.5%) of roughly 310,000 compounds showed an effect of 50% or more. Effects have a minus sign here. Shown is part of a subset that was picked to be rich in strong results.
reported-property: hERG current change (%, negative = inhibition) at 10uM (%)
One number for each entry, in %.

compound=CCOC(=O)C1(Cc2ccccc2)CCN(Cc2ccc3c(c2)OCCO3)CC1 observed=-33.1
compound=OCC1(CCOc2ccccc2)CCN(Cc2ccc3c(c2)OCCO3)CC1 observed=-75.1
compound=CC(=O)Nc1ccc(/C=N/NC(=O)CCN2CCN(c3ccccc3)CC2)cc1 observed=-2.3
compound=COc1cc(OC)cc(-c2n[nH]c(=S)n2-c2ccc3c(c2)OCO3)c1 observed=15.4
compound=COC(=O)c1ccccc1S(=O)(=O)N1CCC(C(=O)OCc2ccc([N+](=O)[O-])cc2)CC1 observed=-57.1

Working through the 8 compounds below one at a time, give hERG current change (%, negative = inhibition) at 10uM for each.
1. Cc1ccc(C2CC(=O)C(C=NCCN3CCN(C(=S)Nc4ccc(F)cc4)CC3)=C(O)C2)cc1 (centres unmarked)
2. Cc1cc(C)cc(OCc2ccc(C(=O)NC3CCOC3=O)o2)c1 (centres unmarked)
3. CC(OC(=O)C1CCCC1)C(=O)Nc1ncc(Cl)cc1Cl (centres unmarked)
4. COc1ccc(C(=O)Nc2ccc(Cl)c(Cl)c2)c(OC)n1
5. Cc1cc(C)n(CC(=O)NNC(=O)c2ccc(NC(=O)CC#N)cc2)n1
6. COc1ccc(COC(=O)C2CCN(S(=O)(=O)c3ccc(C)cc3)CC2)cc1
7. Cc1ccc(-c2nc(NCCN(C)C)c3ccccc3n2)cc1
8. Cc1ccc(-c2nnn(CC(=O)N(Cc3ccc(F)cc3)C(C(=O)NC3CCCC3)c3ccncc3)n2)o1 (centres unmarked)

[out]
-58.6
15.9
-2.36
14.1
5.56
-7.61
-44.9
-12.4

Working through the 4 compounds below one at a time, give hERG current change (%, negative = inhibition) at 10uM for each.
1. Cc1c(C(=O)Nc2ccc(F)cc2)sc2ncn(CC(=O)N3CCCCC3)c(=O)c12
2. O=C(CN1CCCCCCC1)N/N=C/c1ccc([N+](=O)[O-])o1
3. C=CCN(C(=O)C1=NN(C2CCS(=O)(=O)C2)C(=O)CC1)c1nc(-c2ccc([N+](=O)[O-])cc2)cs1 (centres unmarked)
4. COC(=O)c1ccccc1S(=O)(=O)N1CCC(C(=O)OC(C)C(=O)Nc2ccccc2OC)CC1 (centres unmarked)

[out]
1: 1.43; 2: -52.1; 3: -63.5; 4: -51.3

====

Biological target: human ether-à-go-go-related gene (hERG) potassium channel (human);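 also: peak tail current of the secondary pulse compared with the same well before compound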
Experiment: primary screen, population patch clamp on CHO cells stably expressing hERG; higher = less effect of the substance
Screen size: about 310,000 compounds; about 14,000 (4.5%) showed an effect of 50% or more. The effect is printed as a negative number. For the sample, strong results were picked, then their nearest neighbours and some compounds at random.
reported-property: hERG current change (%, negative = inhibition) at 10uM

Sample answers from the record:
molecule=Cc1c(N/C(=N/S(=O)(=O)c2ccccc2)c2ccc(Cl)cc2)c(=O)n(-c2ccccc2)n1C observed=-30.7%
molecule=O=C(NCCN1CCN(C(=O)c2cc3ccccc3oc2=O)CC1)c1cc2ccccc2oc1=O observed=-15.9%

Working through the 5 molecules below one at a time, give hERG current change (%, negative = inhibition) at 10uM for each.
1. CC(C)CNC(=S)NC(=O)c1ccc(F)cc1
2. COC(=O)c1c(SCC(=O)Nc2ccc(C)c(C)c2)nc(=O)[nH]c1C
3. C=CCn1c(SCc2ccccc2)nc2c1c(=O)[nH]c(=O)n2C
4. CCCCn1c(=O)[nH]c(=O)c2c1nc(-c1ccc(OCC)cc1)n2CC
5. COc1ccc(N2CCN(C(=O)C3CCCN3S(=O)(=O)c3cccc4nsnc34)CC2)cc1 (stereo not shown)

[out]
5.45%
2.16%
-21.6%
1.27%
-30.6%

====

Provide the reported hERG current change (%, negative = inhibition) at 10uM of each item.
Target: human ether-à-go-go-related gene (hERG) potassium channel (human, UniProt Q12809);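 also: peak tail current of the secondary pulse compared with the same well before compound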
Assay: primary screen, population patch clamp on CHO cells stably expressing hERG; higher = less effect of the substance
The whole screen tested about 310,000 compounds, of which about 14,000 (4.5%) showed an effect of 50% or more. The effect is printed as a negative number. The list comes from a sample in which strong results are over-represented; it also holds close analogues and randomly drawn compounds.
Answers are plain numbers, in %.

smiles_repr=O=C(CNC(=O)c1ccccc1)OCc1cccc(Br)c1 observed=-17.8
smiles_repr=COc1ccc(/C=c2\sc3nc(=O)c(C)nn3c2=O)c(OC)c1 observed=23

Turning now to a further compound:
hERG current change (%, negative = inhibition) at 10uM in this record for `NC(=O)COc1ccc2oc(=O)cc(-c3cc4ccccc4o3)c2c1` : 7.27

====

Provide the reported hERG current change (%, negative = inhibition) at 10uM of each item.
Molecular target: human ether-à-go-go-related gene (hERG) potassium channel (human);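 also: peak tail current of the secondary pulse compared with the same well before compound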
Experiment: primary screen, population patch clamp on CHO cells stably expressing hERG; higher = less effect of the substance
About 14,000 (4.5%) of roughly 310,000 compounds showed an effect of 50% or more. Effects have a minus sign here. The entries come from a sample that favours strong results as a whole.
One number for each entry, in %.

Sample answers from the record:
compound="Cc1cc(NC(=O)CCN2C(=O)C3C4C=CC(C4)C3C2=O)c2ccccc2n1 (centres unmarked)" assay_system="human ether-à-go-go-related gene (hERG) potassium channel (human)" observed=7.51
compound=N#Cc1cc(-c2ccccc2)nc(N2CCNCC2)n1 assay_system="human ether-à-go-go-related gene (hERG) potassium channel (human)" observed=-11.3

Working through the 3 compounds below one at a time, give hERG current change (%, negative = inhibition) at 10uM for each.
1. CCOC(=O)CCNC(=O)N1CCCC(C(=O)c2ccc3c(c2)OCO3)C1 (centres unmarked)
2. CN(C)C(=O)CSc1nc2ccccc2c(=O)[nH]1
3. O=C(c1ccc2c(c1)OCO2)C1CCCN(C(=O)Nc2ccc(F)cc2F)C1 (centres unmarked)

[out]
1: 2.31; 2: 22; 3: -30

====

Target: human ether-à-go-go-related gene (hERG) potassium channel (human);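 also: peak tail current of the secondary pulse compared with the same well before compound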
Experiment: primary screen, population patch clamp on CHO cells stably expressing hERG; higher = less effect of the substance
Experimental: Briefly, Chinese hamster ovary (CHO) cells stably expressing the hERG channel were dislodged from tissue culture flasks and dispensed into PPC plates. […] During the recording, background leak currents were estimated by a 100 ms step to -80 mV from an initial holding potential of -70 mV and subtracted from the subsequent current measurement. The campaign was conducted in two phases using slight differences in recording protocol. […]
Hit rate of the full screen: of about 310,000 compounds, about 14,000 (4.5%) showed an effect of 50% or more. Effects have a minus sign here. The entries come from a sample that favours strong results as a whole.
Provide the reported hERG current change (%, negative = inhibition) at 10uM of each item.
Give bare numbers, in %.

Sample answers from the record:
compound=COc1ccc(OC)c(CCNC(=O)CCn2nc(C)c3c(C)n(-c4ccccc4)nc3c2=O)c1 unit_spec=% observed=18.5
compound=O=C(Nc1cccc(Cl)c1N1CCOCC1)c1ccco1 unit_spec=% observed=-8.08
compound="COc1ccccc1CNC(=O)C1COc2ccccc2O1 (centres unmarked)" unit_spec=% observed=-15.1
compound=O=C(Nc1cccc(Cl)c1N1CCCC1)c1ccco1 unit_spec=% observed=6.11

Turning now to a further compound:
hERG current change (%, negative = inhibition) at 10uM in this record for `O=C(Nc1cccc(Cl)c1N1CCOCC1)c1ccc([N+](=O)[O-])o1` : 2.67
